Consider the following compounds; for each one, report its MIC.
Test system: Streptococcus pneumoniae
experimentalDetails: Antibacterial activity against Streptococcus pneumoniae CL2883 by turbidity method
Format: functional
experimentalConditions: read-out: MIC100
One number for each entry, in ng/mL.

compound=CO/C(C)=C1/NC(=O)[C@H]([C@@H](C)O)NC(=O)c2csc(n2)-c2cc(O)c(-c3nc(CNCC[C@H](O)[C@H](O)CO)cs3)nc2-c2csc(n2)[C@@H]2COC(=O)c3c4c5c(cccc5n3O)COC(=O)[C@@H](O[C@H]3C[C@](C)(O)[C@H](N(C)C)[C@H](C)O3)[C@@H](OC4)[C@H](NC(=O)c3csc1n3)c1nc(cs1)C(=O)N2 parameter=MIC unittext=ng/mL valueobserved=15
compound="CO/C(C)=C1/NC(=O)[C@H]([C@@H](C)O)NC(=O)c2csc(n2)-c2cc(O)c(-c3nc(CNC(=O)C(C)NC(N)=O)cs3)nc2-c2csc(n2)[C@@H]2COC(=O)c3c4c5c(cccc5n3O)COC(=O)[C@@H](O[C@H]3C[C@](C)(O)[C@H](N(C)C)[C@H](C)O3)[C@@H](OC4)[C@H](NC(=O)c3csc1n3)c1nc(cs1)C(=O)N2 (stereo partly drawn)" parameter=MIC unittext=ng/mL valueobserved=3.8

MIC measured on CO/C(C)=C1/NC(=O)[C@H]([C@@H](C)O)NC(=O)c2csc(n2)-c2cc(O)c(-c3nc(CNC(=O)C(N)=O)cs3)nc2-c2csc(n2)[C@@H]2COC(=O)c3c4c5c(cccc5n3O)COC(=O)[C@@H](O[C@H]3C[C@](C)(O)[C@H](N(C)C)[C@H](C)O3)[C@@H](OC4)[C@H](NC(=O)c3csc1n3)c1nc(cs1)C(=O)N2 = 4.57
